Heads up, these molecules all have Ki values measured for α2B (Homo sapiens).
Unit nM implied. Number only.

Q: Given COc1ccc2c(c1)CC(N)C2 (stereo not shown) , state its recorded Ki.
A: 1550

Q: Check COc1cc2c(cc1C)CC(N)C2 (stereo not shown) too.
A: 1230

Q: Check NC1Cc2ccccc2C1 too.
A: 211

Q: Check NC1Cc2cc3c(cc2C1)OCO3 too.
A: 1120

* * *

Give Ki for every item shown.
Molecular target: 5-HT1E (Homo sapiens)
Sequence (P28566 whole entry): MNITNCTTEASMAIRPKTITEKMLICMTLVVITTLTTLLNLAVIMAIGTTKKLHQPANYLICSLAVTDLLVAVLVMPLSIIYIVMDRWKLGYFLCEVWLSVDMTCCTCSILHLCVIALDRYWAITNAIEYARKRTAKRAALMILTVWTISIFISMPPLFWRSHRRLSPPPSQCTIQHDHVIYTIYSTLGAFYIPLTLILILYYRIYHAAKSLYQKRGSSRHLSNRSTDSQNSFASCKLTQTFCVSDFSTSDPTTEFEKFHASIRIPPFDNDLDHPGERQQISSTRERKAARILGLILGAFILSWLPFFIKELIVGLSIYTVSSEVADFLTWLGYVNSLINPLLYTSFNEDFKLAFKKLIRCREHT

Q: Given NC1Cc2ccccc2C1 [2-AI, 2-aminoindan] , state its recorded Ki.
A: > 10 µM

Q: Check COc1cc2c(cc1C)CC(N)C2 (stereo not shown) [MMAI, 5-methoxy-6-methyl-2-aminoindan] too.
A: > 10 µM

Q: Check NC1Cc2cc3c(cc2C1)OCO3 [MDAI, 5,6-methylenedioxy-2-aminoindan] too.
A: > 10 µM

Q: Check COc1ccc2c(c1)CC(N)C2 (stereo not shown) [5-MeO-AI, 5-methoxy-2-aminoindan] too.
A: > 10 µM

* * *

Heads up, these compounds all have pKi values measured for SERT (Homo sapiens, UniProt P31645).
pKi: −log10 of the molar value.

Q: Given NC1Cc2ccccc2C1 , state its recorded pKi.
A: < 5.00

Q: Check COc1ccc2c(c1)CC(N)C2 (stereo not shown) too.
A: < 5.00

Q: Check COc1cc2c(cc1C)CC(N)C2 (stereo not shown) too.
A: 5.32

Q: Check NC1Cc2cc3c(cc2C1)OCO3 too.
A: < 5.00

* * *

Target: UniProt P31652
Sequence (P31652 whole entry): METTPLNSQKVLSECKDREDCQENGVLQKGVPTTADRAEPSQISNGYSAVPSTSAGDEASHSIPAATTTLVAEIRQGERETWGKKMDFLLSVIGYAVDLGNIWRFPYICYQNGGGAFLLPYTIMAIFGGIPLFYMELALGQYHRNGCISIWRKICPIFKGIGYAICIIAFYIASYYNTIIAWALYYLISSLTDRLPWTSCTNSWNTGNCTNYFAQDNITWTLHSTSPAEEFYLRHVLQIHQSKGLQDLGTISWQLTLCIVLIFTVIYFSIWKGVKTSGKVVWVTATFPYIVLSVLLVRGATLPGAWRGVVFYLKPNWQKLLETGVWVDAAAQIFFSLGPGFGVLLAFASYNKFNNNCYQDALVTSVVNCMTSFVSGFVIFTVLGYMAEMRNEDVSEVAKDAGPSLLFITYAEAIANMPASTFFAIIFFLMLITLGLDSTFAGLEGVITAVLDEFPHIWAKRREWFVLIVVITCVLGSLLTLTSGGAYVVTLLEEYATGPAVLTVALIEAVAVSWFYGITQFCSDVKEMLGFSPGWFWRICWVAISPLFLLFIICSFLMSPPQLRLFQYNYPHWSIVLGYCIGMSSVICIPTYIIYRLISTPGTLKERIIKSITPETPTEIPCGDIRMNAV
Assay: SERT-mediated release of [3H]5-HT from rat brain synaptosomes
Give EC50 for every item shown.
Unit nM implied. Number only.

Q: Given COc1ccc2c(c1)CC(N)C2 (stereo not shown) , state its recorded EC50.
A: 134

Q: Check COc1cc2c(cc1C)CC(N)C2 (stereo not shown) too.
A: 31

Q: Check NC1Cc2cc3c(cc2C1)OCO3 too.
A: 114

* * *

Heads up, these compounds all have Ki values measured for NET (Homo sapiens).

Q: Given COc1ccc2c(c1)CC(N)C2 (stereo not shown) [5-MeO-AI, 5-methoxy-2-aminoindan] , state its recorded Ki.
A: > 10 µM

Q: Check COc1cc2c(cc1C)CC(N)C2 (stereo not shown) [MMAI, 5-methoxy-6-methyl-2-aminoindan] too.
A: > 10 µM

Q: Check NC1Cc2ccccc2C1 [2-AI, 2-aminoindan] too.
A: > 10 µM

Q: Check NC1Cc2cc3c(cc2C1)OCO3 [MDAI, 5,6-methylenedioxy-2-aminoindan] too.
A: > 10 µM

* * *

Target: UniProtKB P23977
Experiment: DAT-mediated release of [3H]MPP+ from rat brain synaptosomes
Type: biochemical
Settings: (DAT EC50)^-1 ÷ (SERT EC50)^-1; higher value = greater DAT selectivity
value_type: DAT/SERT ratio

Q: Given NC1Cc2cc3c(cc2C1)OCO3 , state its recorded DAT/SERT ratio.
A: 0.08

Q: Check NC1Cc2ccccc2C1 too.
A: >22.78

Q: Check COc1cc2c(cc1C)CC(N)C2 (stereo not shown) too.
A: > 0.003

Q: Check COc1ccc2c(c1)CC(N)C2 (stereo not shown) too.
A: 0.05

* * *

Give pKi for every item shown.
Target: α2C (Homo sapiens)
Sequence (P18825 whole entry): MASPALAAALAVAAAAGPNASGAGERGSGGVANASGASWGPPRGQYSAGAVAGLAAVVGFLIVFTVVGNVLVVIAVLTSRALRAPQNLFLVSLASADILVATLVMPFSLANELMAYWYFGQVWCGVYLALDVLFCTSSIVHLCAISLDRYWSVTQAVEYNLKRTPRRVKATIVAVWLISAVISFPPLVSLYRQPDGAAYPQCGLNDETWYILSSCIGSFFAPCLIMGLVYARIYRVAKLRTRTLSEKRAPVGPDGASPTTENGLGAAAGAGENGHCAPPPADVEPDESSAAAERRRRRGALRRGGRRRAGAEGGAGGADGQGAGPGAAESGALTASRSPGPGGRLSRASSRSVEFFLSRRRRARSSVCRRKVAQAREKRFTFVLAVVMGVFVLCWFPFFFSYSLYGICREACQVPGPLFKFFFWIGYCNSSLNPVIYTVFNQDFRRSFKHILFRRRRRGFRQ
Scale note: pKi = -log10(concentration in M).

Q: Given NC1Cc2cc3c(cc2C1)OCO3 , state its recorded pKi.
A: 6.44

Q: Check COc1cc2c(cc1C)CC(N)C2 (stereo not shown) too.
A: 5.86

Q: Check NC1Cc2ccccc2C1 too.
A: 7.39

Q: Check COc1ccc2c(c1)CC(N)C2 (stereo not shown) too.
A: 5.91

* * *

pKi: −log10 of the molar value.
Heads up, these molecules all have pKi values measured for 5-HT1D (Homo sapiens).

Q: Given NC1Cc2cc3c(cc2C1)OCO3 , state its recorded pKi.
A: < 5.00

Q: Check NC1Cc2ccccc2C1 too.
A: < 5.00

Q: Check COc1ccc2c(c1)CC(N)C2 (stereo not shown) too.
A: < 5.00

Q: Check COc1cc2c(cc1C)CC(N)C2 (stereo not shown) too.
A: 5.59

* * *

Heads up, these compounds all have Ki values measured for 5-HT1A (Homo sapiens, UniProt P08908).
Unit nM implied. Number only.

Q: Given COc1cc2c(cc1C)CC(N)C2 (stereo not shown) , state its recorded Ki.
A: 1080

Q: Check COc1ccc2c(c1)CC(N)C2 (stereo not shown) too.
A: 2500

* * *

Molecular target: NET (Rattus norvegicus, UniProt Q63380)
Sequence (Q63380 1-617): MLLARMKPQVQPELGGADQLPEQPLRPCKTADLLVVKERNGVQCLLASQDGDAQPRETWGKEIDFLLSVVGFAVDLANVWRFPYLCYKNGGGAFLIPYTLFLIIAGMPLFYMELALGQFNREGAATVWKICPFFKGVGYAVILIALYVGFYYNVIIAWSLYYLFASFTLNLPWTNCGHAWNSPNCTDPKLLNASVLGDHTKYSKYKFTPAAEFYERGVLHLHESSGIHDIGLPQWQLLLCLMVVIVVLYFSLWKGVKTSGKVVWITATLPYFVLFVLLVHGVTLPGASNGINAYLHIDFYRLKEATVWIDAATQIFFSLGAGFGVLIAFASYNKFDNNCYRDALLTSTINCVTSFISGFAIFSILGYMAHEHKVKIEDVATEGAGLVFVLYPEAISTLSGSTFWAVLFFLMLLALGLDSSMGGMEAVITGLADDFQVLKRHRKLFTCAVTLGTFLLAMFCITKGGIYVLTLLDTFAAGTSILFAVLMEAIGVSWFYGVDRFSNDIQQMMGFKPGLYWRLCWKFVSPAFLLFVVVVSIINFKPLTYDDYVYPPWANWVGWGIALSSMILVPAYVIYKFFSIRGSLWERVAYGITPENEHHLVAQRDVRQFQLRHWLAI
Test: NET-mediated release of [3H]MPP+ from rat brain synaptosomes
Format: biochemical
Settings: read-out: NET-mediated release Emax
Give Emax for every item shown.
Unit % implied. Number only.

Q: Given COc1ccc2c(c1)CC(N)C2 (stereo not shown) , state its recorded Emax.
A: 101

Q: Check COc1cc2c(cc1C)CC(N)C2 (stereo not shown) too.
A: 105

Q: Check NC1Cc2ccccc2C1 too.
A: 95

Q: Check NC1Cc2cc3c(cc2C1)OCO3 too.
A: 99

* * *

Target: 5-HT2B (Homo sapiens, UniProt P41595)
Sequence (P41595 whole entry): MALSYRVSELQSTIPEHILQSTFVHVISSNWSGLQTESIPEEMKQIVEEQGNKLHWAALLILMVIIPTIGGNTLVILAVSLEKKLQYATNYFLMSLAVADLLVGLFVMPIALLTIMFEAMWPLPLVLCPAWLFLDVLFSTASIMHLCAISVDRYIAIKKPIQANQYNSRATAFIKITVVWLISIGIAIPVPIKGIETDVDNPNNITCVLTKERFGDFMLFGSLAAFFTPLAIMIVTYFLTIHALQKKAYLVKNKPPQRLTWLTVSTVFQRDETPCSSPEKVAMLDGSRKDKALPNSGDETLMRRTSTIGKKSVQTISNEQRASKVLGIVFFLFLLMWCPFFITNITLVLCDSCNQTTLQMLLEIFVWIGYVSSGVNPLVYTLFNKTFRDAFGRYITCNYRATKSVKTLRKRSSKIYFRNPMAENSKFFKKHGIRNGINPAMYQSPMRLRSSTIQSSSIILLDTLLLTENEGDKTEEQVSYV
value_type: Ki (µM)
Unit µM implied. Number only.

Q: Please tell me: Ki of COc1cc2c(cc1C)CC(N)C2 (stereo not shown) [MMAI, 5-methoxy-6-methyl-2-aminoindan] , system 5-HT2B (Homo sapiens, UniProt P41595)?
A: 0.902

Q: Check COc1ccc2c(c1)CC(N)C2 (stereo not shown) [5-MeO-AI, 5-methoxy-2-aminoindan] too.
A: 4.79

* * *

Molecular target: 5-HT1B (Homo sapiens, UniProt P28222)
Sequence (P28222 whole entry): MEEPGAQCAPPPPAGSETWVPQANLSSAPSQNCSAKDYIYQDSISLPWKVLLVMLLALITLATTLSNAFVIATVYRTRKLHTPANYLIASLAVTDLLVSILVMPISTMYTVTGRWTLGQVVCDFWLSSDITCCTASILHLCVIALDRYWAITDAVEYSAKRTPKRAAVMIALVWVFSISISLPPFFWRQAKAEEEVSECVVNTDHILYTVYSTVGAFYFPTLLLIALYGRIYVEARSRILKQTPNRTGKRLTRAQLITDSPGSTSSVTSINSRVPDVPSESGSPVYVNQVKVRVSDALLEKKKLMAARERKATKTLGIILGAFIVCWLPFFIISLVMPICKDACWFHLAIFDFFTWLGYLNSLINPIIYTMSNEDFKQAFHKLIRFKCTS
pKi: −log10 of the molar value.
value_type: pKi

Q: Given NC1Cc2ccccc2C1 , state its recorded pKi.
A: < 5.00

Q: Check COc1cc2c(cc1C)CC(N)C2 (stereo not shown) too.
A: 5.56

Q: Check COc1ccc2c(c1)CC(N)C2 (stereo not shown) too.
A: < 5.00

Q: Check NC1Cc2cc3c(cc2C1)OCO3 too.
A: < 5.00

* * *

Heads up, these compounds all have Ki values measured for 5-HT7 (Homo sapiens).

Q: Given COc1cc2c(cc1C)CC(N)C2 (stereo not shown) , state its recorded Ki.
A: 1.01 µM

Q: Check COc1ccc2c(c1)CC(N)C2 (stereo not shown) too.
A: > 10 µM

Q: Check NC1Cc2cc3c(cc2C1)OCO3 too.
A: > 10 µM

Q: Check NC1Cc2ccccc2C1 too.
A: > 10 µM

* * *

Target: D3 (Homo sapiens, UniProt P35462)
Sequence (P35462 whole entry): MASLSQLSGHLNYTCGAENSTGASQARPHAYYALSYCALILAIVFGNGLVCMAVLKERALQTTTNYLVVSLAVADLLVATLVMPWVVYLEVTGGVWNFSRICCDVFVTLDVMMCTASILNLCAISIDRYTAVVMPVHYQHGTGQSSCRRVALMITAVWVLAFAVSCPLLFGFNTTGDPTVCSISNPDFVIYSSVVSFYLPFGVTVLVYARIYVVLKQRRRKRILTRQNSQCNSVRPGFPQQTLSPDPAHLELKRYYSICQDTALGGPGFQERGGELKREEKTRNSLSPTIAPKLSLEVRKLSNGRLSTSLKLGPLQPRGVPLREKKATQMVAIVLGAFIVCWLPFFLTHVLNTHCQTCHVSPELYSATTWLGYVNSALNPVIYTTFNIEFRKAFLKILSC
value_type: Ki

Q: Given NC1Cc2cc3c(cc2C1)OCO3 , state its recorded Ki.
A: > 10 µM

Q: Check COc1cc2c(cc1C)CC(N)C2 (stereo not shown) too.
A: > 10 µM

Q: Check NC1Cc2ccccc2C1 too.
A: > 10 µM

Q: Check COc1ccc2c(c1)CC(N)C2 (stereo not shown) too.
A: > 10 µM

* * *

Give DAT/NET ratio for every item shown.
Molecular target: UniProt P23977
Test: DAT-mediated release of [3H]MPP+ from rat brain synaptosomes
Type: biochemical
Details: (DAT EC50)^-1 ÷ (NET EC50)^-1; higher value = greater DAT selectivity
Hey, just send me the number, nothing else.

Q: Please tell me: DAT/NET ratio of NC1Cc2cc3c(cc2C1)OCO3 [MDAI, 5,6-methylenedioxy-2-aminoindan] , system UniProt P23977?
A: 0.09

Q: Check COc1ccc2c(c1)CC(N)C2 (stereo not shown) [5-MeO-AI, 5-methoxy-2-aminoindan] too.
A: 0.33

Q: Check NC1Cc2ccccc2C1 [2-AI, 2-aminoindan] too.
A: 0.20

* * *

Target: DAT (Rattus norvegicus, UniProt P23977)
Sequence (P23977 whole entry): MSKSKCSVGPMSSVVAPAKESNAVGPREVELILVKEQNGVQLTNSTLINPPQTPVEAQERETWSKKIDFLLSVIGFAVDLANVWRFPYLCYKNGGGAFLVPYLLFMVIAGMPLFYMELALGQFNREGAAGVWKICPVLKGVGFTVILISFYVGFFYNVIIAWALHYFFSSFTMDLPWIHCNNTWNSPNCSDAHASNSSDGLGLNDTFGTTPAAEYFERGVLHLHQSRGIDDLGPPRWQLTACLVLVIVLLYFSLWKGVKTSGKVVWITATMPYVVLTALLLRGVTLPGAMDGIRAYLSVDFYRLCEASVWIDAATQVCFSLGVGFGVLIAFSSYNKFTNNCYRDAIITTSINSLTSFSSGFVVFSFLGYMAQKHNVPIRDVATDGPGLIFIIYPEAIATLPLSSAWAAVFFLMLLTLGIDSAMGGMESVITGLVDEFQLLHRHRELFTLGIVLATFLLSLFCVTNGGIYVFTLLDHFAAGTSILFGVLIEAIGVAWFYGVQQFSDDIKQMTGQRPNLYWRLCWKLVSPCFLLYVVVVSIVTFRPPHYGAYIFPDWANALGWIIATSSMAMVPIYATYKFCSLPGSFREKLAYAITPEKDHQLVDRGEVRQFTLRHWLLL
Assay: DAT-mediated release of [3H]MPP+ from rat brain synaptosomes
Give pEC50 for every item shown.
Scale note: pEC50 = -log10(concentration in M).

Q: Given NC1Cc2cc3c(cc2C1)OCO3 , state its recorded pEC50.
A: 5.87

Q: Check NC1Cc2ccccc2C1 too.
A: 6.36

Q: Check COc1ccc2c(c1)CC(N)C2 (stereo not shown) too.
A: 5.58

* * *

Molecular target: α2A (Homo sapiens, UniProt P08913)
Sequence (P08913 whole entry): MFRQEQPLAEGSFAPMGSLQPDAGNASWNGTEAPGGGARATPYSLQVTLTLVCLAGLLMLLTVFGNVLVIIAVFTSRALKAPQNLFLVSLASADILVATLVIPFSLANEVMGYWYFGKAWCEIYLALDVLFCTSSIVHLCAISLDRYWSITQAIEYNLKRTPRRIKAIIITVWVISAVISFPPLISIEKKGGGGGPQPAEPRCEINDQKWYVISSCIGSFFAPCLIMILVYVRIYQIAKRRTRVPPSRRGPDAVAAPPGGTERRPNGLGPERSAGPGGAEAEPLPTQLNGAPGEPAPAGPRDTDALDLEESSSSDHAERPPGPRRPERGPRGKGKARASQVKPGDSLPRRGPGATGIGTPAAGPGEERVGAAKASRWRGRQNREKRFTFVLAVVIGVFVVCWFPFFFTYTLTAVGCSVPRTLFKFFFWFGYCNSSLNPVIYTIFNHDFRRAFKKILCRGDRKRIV
Test: Radioligand binding
value_type: pKi
Scale note: pKi = -log10(concentration in M).

Q: Please tell me: pKi of COc1cc2c(cc1C)CC(N)C2 (stereo not shown) , system α2A (Homo sapiens, UniProt P08913)?
A: 6.14

Q: Check COc1ccc2c(c1)CC(N)C2 (stereo not shown) too.
A: 6.12

Q: Check NC1Cc2cc3c(cc2C1)OCO3 too.
A: 6.49

Q: Check NC1Cc2ccccc2C1 too.
A: 6.87

* * *

Heads up, these molecules all have Ki values measured for 5-HT2A (Homo sapiens).

Q: Please tell me: Ki of NC1Cc2ccccc2C1 [2-AI, 2-aminoindan] , system 5-HT2A (Homo sapiens)?
A: > 10 µM

Q: Check NC1Cc2cc3c(cc2C1)OCO3 [MDAI, 5,6-methylenedioxy-2-aminoindan] too.
A: > 10 µM

Q: Check COc1ccc2c(c1)CC(N)C2 (stereo not shown) [5-MeO-AI, 5-methoxy-2-aminoindan] too.
A: > 10 µM

Q: Check COc1cc2c(cc1C)CC(N)C2 (stereo not shown) [MMAI, 5-methoxy-6-methyl-2-aminoindan] too.
A: > 10 µM
